# TARGET_OF_ASSAY: ATR kinase (Homo sapiens)
# Construct: purchased Eurofins 14-953
# EXPERIMENTAL_PROTOCOL: Inhibitory effect on ATR kinase activity (Caliper mobility shift, FAM-labeled RAD17 peptide substrate)
# Format: biochemical
# ASSAY_SETUP: 1 nM ATR kinase (Eurofins), 28°C for 3 hours, maximum concentration 1 µM, 10 concentrations, read-out: ATR kinase IC50
pIC50: −log10 of the molar value.
Measured pIC50, listed per entry.

Look over these answered cases.
| COMPOUND | pIC50 |
| --- | --- |
| CC1c2cc(N3CCOC[C@H]3C)nc3c2c(nn3-c2cc[nH]n2)CCN1S(=O)(=O)C1CC1 (single isomer, unassigned) [Compound 37A] | 7.00 to 8.00 |
| CCS(=O)(=O)N1CCc2nn(-c3cc[nH]n3)c3nc(N4CCOC[C@H]4C)cc(c23)C1C (single isomer, unassigned) [Compound 48A] | 7.00 to 8.00 |
| C[C@@H]1COCCN1c1cc2c3c(n1)c(-c1cc[nH]n1)nn3CCC(=O)N2C1CCOC1 (some centres unmarked) [Compound 90] | 7.00 to 8.00 |

-- ask Which pIC50 value is on record for C[C@@H]1COCCN1c1cc2c3c(nn(-c4cc[nH]n4)c3n1)CCN(C1CC(F)(F)C1)C2 [Compound 7] ?
-- reply 7.00 to 8.00

-- ask One more compound: CCN1CCc2nn(-c3cc[nH]n3)c3nc(N4CCOC[C@H]4C)cc(c23)C1C (single isomer, unassigned) [Compound 41B]
-- reply > 8.00

-- ask Now this one: CC(C)N1CCc2nn(-c3cc[nH]n3)c3nc(N4CCOC[C@H]4C)cc(c23)C1 [Compound 2]
-- reply 7.00 to 8.00

-- ask Then CC1c2cc(N3CCOC[C@H]3C)nc3c2c(nn3-c2cc[nH]n2)CCN1C1COC1 (single isomer, unassigned) [Compound 32B] ?
-- reply 7.00 to 8.00

-- ask Let us now turn to CC1c2cc(N3CCOC[C@H]3C)nc3c2c(nn3-c2cc[nH]n2)CCN1S(=O)(=O)C1CC1F (single isomer, unassigned) [Compound 151B]
-- reply > 8.00

-- ask Now consider C[C@@H]1COCCN1c1cc2c3c(nn(-c4cc[nH]n4)c3n1)CCN(C1COC1)C2 [Compound 8] and answer again.
-- reply 7.00 to 8.00

-- ask For C[C@@H]1COCCN1c1cc2c3c(n1)c(-c1cc[nH]n1)nn3CCCN2S(C)(=O)=O [Compound 121] then?
-- reply 7.00 to 8.00

-- ask Request: C[C@@H]1COCCN1c1cc2c3c(nn(-c4cc[nH]n4)c3n1)CCN(S(C)(=O)=O)C2 [Compound 22]
-- reply > 8.00

-- ask Now this one: C[C@@H]1COCCN1c1cc2c3c(nn(-c4cc[nH]n4)c3n1)CCOC2(C)C [Compound 146]
-- reply > 8.00

-- ask Next up: C[C@@H]1COCCN1c1cc2c3c(nn(-c4cc[nH]n4)c3n1)CCN(C1COC1)C2C1CC1 (some centres unmarked) [Compound 135]
-- reply 7.00 to 8.00

-- ask Also C[C@@H]1COCCN1c1cc2c3c(nn(-c4cc[nH]n4)c3n1)CCN(C1CC(C(F)(F)F)C1)C2 (single isomer, unassigned) [Compound 13A] ?
-- reply 7.00 to 8.00

* * *

# Test system: LoVo cells
# EXPERIMENTAL_PROTOCOL: LoVo cell proliferation assay (CellTiter-Glo)
# Format: cell-based
# ASSAY_SETUP: Homo sapiens, LoVo, 120 h, LoVo cells, 2,000 cells per well, 5 days incubation, CellTiter-Glo; maximum concentration 10 µM, 9 concentrations; read-out: LoVo IC50
pIC50: −log10 of the molar value.
Measured pIC50 by item

Here is how some compounds turned out for pIC50.
| COMPOUND | TARGET_OF_ASSAY | pIC50 |
| --- | --- | --- |
| CC1CC(C(=O)N2CCc3nn(-c4cc[nH]n4)c4nc(N5CCOC[C@H]5C)cc(c34)C2)C1 (stereo partly shown) | LoVo cells | 6.00 to 7.00 |
| C[C@@H]1COCCN1c1cc2c3c(nn(-c4cc[nH]n4)c3n1)CCN(C(=O)CC(F)(F)F)C2 | LoVo cells | < 6.00 |
| C[C@@H]1COCCN1c1cc2c3c(nn(-c4cc[nH]n4)c3n1)CCN(S(=O)(=O)C1COC1)C2 | LoVo cells | 6.00 to 7.00 |

-- ask State the recorded pIC50 for this entry: C[C@@H]1COCCN1c1cc2c3c(n1)c(-c1cc[nH]n1)nn3CCN2S(C)(=O)=O
-- reply 6.00 to 7.00

* * *

# Test system: LoVo cells
# EXPERIMENTAL_PROTOCOL: LoVo cell proliferation assay (CellTiter-Glo)
# Format: cell-based
# ASSAY_SETUP: Homo sapiens, LoVo, 120 h, LoVo cells, 2,000 cells per well, 5 days incubation, CellTiter-Glo; maximum concentration 10 µM, 9 concentrations; read-out: LoVo IC50
# maps each entry to its IC50

Study these solved cases before continuing.
| MOLECULE | IC50 |
| --- | --- |
| CC1Cn2nc(-c3cc[nH]n3)c3nc(N4CCOC[C@H]4C)cc(c32)N(C(C)C)C1=O (stereo partly shown) [Compound 119] | 100 to 1000 nM |
| C[C@@H]1COCCN1c1cc2c3c(n1)c(-c1cc[nH]n1)nn3CCC(=O)N2 [Compound 93] | 100 to 1000 nM |
| C[C@@H]1COCCN1c1cc2c3c(nn(-c4cc[nH]n4)c3n1)CCN(C(=O)C1CC1(F)F)C2 (stereo partly shown) [Compound 19] | 100 to 1000 nM |
| C[C@@H]1COCCN1c1cc2c3c(n1)c(-c1cc[nH]n1)nn3CCC2(O)c1cnn(C)c1 (single isomer, unassigned) [Compound 74A] | > 1000 nM |
| CC1c2cc(N3CCOC[C@H]3C)nc3c2c(nn3-c2cc[nH]n2)CCN1C1COC1 (single isomer, unassigned) [Compound 32A] | 100 to 1000 nM |
| C[C@@H]1COCCN1c1cc2c3c(nn(-c4cc[nH]n4)c3n1)CCOC2(C)C [Compound 146] | < 100 nM |

Query molecule follows.
-- ask # get_value(readout='IC50', item= C[C@@H]1COCCN1c1cc2c3c(nn(-c4cc[nH]n4)c3n1)CCN(S(=O)(=O)C1CC1)C2 [Compound 23] )
-- reply 100 to 1000 nM

* * *

compounds and their reported IC50
# TARGET_OF_ASSAY: ATR kinase (Homo sapiens, UniProt Q13535)
# Construct: purchased Eurofins 14-953
# Sequence (Q13535 whole entry): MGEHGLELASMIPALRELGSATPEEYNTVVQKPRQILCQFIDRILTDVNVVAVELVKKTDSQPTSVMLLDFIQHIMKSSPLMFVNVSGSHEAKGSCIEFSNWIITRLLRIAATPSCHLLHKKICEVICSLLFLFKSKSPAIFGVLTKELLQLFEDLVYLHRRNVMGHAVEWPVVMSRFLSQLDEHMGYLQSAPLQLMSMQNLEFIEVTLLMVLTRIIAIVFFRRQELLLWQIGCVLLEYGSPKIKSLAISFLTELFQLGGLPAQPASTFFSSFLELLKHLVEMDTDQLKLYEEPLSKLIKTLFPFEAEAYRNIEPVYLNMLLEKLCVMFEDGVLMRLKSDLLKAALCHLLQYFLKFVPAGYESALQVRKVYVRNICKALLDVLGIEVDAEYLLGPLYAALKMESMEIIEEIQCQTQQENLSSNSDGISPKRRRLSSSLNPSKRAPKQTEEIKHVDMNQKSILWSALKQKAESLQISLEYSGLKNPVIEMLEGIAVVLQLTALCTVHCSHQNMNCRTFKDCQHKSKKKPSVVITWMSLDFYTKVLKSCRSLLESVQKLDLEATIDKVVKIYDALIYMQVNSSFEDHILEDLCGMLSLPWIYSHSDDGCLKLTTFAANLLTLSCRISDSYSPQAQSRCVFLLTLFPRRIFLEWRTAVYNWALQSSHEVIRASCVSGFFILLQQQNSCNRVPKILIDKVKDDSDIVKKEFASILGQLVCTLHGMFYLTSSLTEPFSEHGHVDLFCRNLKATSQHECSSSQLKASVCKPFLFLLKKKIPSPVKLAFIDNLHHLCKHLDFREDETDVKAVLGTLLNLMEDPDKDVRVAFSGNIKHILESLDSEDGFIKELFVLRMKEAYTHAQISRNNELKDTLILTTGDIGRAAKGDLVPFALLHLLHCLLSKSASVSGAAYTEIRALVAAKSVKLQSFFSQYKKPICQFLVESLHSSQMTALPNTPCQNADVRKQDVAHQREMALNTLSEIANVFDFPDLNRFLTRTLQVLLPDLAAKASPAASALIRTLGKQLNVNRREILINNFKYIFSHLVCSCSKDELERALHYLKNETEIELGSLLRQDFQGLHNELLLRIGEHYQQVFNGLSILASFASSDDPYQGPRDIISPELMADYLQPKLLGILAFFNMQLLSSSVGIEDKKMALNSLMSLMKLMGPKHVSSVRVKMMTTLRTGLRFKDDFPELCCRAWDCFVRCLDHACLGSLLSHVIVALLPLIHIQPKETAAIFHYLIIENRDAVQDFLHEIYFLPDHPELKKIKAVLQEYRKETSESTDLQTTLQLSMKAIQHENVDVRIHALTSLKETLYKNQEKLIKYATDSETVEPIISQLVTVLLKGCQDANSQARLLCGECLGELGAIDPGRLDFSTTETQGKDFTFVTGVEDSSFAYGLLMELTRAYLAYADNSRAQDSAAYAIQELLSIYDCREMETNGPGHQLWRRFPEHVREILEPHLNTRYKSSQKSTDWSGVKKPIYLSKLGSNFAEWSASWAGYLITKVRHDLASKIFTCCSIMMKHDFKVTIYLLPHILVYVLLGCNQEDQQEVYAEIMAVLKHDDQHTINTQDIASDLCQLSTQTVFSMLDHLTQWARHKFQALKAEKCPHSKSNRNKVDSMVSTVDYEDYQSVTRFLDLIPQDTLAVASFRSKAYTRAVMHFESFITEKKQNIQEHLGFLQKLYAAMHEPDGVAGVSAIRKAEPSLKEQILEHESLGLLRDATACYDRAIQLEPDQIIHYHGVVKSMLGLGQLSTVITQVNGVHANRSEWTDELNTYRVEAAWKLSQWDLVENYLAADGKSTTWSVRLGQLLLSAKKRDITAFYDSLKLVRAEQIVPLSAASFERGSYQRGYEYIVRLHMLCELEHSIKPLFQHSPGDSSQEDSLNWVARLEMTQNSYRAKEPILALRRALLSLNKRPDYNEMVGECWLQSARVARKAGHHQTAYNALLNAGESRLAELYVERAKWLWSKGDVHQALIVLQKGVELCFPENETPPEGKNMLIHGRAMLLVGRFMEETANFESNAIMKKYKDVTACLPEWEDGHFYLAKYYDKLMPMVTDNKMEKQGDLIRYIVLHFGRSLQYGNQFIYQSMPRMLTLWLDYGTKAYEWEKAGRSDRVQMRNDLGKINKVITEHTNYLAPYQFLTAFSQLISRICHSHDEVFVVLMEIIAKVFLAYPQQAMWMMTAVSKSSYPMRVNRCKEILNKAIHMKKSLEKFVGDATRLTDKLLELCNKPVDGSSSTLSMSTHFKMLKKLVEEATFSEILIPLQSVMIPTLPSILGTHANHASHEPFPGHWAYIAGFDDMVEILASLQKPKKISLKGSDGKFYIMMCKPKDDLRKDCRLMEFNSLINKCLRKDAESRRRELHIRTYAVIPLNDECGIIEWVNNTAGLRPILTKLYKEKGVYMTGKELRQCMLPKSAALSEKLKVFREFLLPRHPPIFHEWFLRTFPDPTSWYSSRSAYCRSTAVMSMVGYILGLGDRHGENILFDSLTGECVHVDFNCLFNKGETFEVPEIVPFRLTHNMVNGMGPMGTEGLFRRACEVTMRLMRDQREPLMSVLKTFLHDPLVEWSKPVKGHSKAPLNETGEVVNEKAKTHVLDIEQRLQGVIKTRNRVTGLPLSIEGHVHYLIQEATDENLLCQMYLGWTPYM
# Sequence (Q8WXE1 whole entry partner): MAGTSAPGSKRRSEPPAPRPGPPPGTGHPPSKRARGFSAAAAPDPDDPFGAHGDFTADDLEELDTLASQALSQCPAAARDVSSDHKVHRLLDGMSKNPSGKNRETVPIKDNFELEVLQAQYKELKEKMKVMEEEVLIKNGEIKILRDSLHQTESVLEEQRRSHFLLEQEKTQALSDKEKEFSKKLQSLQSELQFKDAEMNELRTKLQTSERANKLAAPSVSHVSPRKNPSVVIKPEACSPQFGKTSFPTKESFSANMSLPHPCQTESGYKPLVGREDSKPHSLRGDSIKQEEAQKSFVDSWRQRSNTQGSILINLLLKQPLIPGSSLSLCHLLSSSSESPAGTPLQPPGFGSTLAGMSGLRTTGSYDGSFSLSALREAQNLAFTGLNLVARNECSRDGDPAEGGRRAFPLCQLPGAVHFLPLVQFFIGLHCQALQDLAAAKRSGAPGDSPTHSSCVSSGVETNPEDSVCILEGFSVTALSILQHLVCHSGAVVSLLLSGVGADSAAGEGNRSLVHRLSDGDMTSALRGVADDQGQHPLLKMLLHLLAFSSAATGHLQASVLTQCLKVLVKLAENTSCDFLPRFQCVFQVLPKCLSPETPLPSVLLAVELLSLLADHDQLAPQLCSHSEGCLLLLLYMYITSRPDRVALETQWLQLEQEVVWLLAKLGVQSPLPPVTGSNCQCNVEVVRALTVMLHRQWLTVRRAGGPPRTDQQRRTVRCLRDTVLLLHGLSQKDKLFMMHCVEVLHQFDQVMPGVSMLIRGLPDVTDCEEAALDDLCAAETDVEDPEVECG
# EXPERIMENTAL_PROTOCOL: Inhibitory effect on ATR kinase activity (Caliper mobility shift, FAM-labeled RAD17 peptide substrate)
# Type: biochemical
# ASSAY_SETUP: 1 nM ATR kinase (Eurofins), 28°C for 3 hours, maximum concentration 1 µM, 10 concentrations, read-out: ATR kinase IC50

| COMPOUND | IC50 |
| --- | --- |
| CCS(=O)(=O)N1CCc2nn(-c3cc[nH]n3)c3nc(N4CCOC[C@H]4C)cc(c23)C1C (single isomer, unassigned) [Compound 48B] | < 10 nM |
| C[C@@H]1COCCN1c1cc2c3c(nn(-c4cc[nH]n4)c3n1)CCN(C1CC1)C2=O [Compound 132] | 10 to 100 nM |
| CC1c2cc(N3CCOC[C@H]3C)nc3c2c(nn3-c2cc[nH]n2)CCN1C1CC1 (single isomer, unassigned) [Compound 31A] | < 10 nM |
| CC1c2cc(N3CCOC[C@H]3C)nc3c2c(nn3-c2cc[nH]n2)CCN1C1(C#N)CC1 (single isomer, unassigned) [Compound 42A] | < 10 nM |
| C[C@@H]1COCCN1c1cc2c3c(nn(-c4cc[nH]n4)c3n1)CCN(S(=O)(=O)C(F)F)C2 [Compound 27] | < 10 nM |

-- ask GET /values?readout=IC50&system=ATR kinase (Homo sapiens, UniProt Q13535)&item= CC1c2cc(N3CCOC[C@H]3C)nc3c2c(nn3-c2cc[nH]n2)CCN1S(=O)(=O)C1CC1F (single isomer, unassigned) [Compound 151A]
-- reply < 10 nM

-- ask Now the same for C[C@@H]1COCCN1c1cc2c3c(nn(-c4cc[nH]n4)c3n1)CCN(c1ccccc1)C2 [Compound 17]
-- reply 10 to 100 nM

-- ask Continue with CN=S(C)(=O)N1CCc2nn(-c3cc[nH]n3)c3nc(N4CCOC[C@H]4C)cc(c23)C1C (single isomer, unassigned) [Compound 152B]
-- reply 10 to 100 nM

-- ask What do you have for C[C@@H]1COCCN1c1cc2c3c(nn(-c4cc[nH]n4)c3n1)CCN(C(=O)C1CC3(C1)CC3(F)F)C2 (single isomer, unassigned) [Compound 20A] ?
-- reply 10 to 100 nM

-- ask Another: CC1c2cc(N3CCOC[C@H]3C)nc3c2c(nn3-c2cc[nH]n2)CCN1C1COC1 (single isomer, unassigned) [Compound 32A]
-- reply 10 to 100 nM

-- ask Same lookup for C[C@@H]1COCCN1c1cc2c3c(n1)c(-c1cc[nH]n1)nn3CCN(C(=O)C1CC1)C2 [Compound 54] , please.
-- reply 10 to 100 nM

-- ask Same for CC1c2cc(N3CCOC[C@H]3C)nc3c(-c4cc[nH]n4)nn(c23)CCN1C1COC1 (stereo partly drawn) [Compound 57]
-- reply 10 to 100 nM

Where do the numbers come from? From patent EP4692090A1.
